Source: the supplement of paper PMC7877785

assay: self-splicing fitness, log relative to wild type (ln ratio); higher = more splicing; Tetrahymena group I intron in knt gene, E. coli kanamycin selection, DiMSum; sequences stand for … in CUCUCU…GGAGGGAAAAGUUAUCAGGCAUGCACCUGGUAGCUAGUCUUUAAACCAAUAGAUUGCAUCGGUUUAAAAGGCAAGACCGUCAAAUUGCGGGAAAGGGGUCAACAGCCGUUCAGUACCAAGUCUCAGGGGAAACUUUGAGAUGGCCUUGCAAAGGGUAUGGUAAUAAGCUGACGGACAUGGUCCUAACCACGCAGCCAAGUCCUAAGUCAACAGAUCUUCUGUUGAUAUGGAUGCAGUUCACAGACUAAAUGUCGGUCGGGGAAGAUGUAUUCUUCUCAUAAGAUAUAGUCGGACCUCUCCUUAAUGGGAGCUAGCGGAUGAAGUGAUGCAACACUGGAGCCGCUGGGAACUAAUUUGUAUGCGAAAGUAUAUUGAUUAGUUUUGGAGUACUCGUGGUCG; conditions: 30 °C;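 also: selection with 25 µg/mL kanamycin versus none on LB agar overnight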

SEQUENCE INPUT	self-splicing fitness (ln)
UCCCAGCAAUAUUACGGUCA	-0.0309
AGGUAGCAAUAUUACGCCCA	0.15
UACCAGCAAUAUUACGCAUA	-0.736
CCCAAGCAAUAUUACGUCAU	-2.95
CAGUAGCAAUAUUACGACAC	-2.36
CAAUAGCAAUAUUACGUCUU	-3.63
GAAAAGCAAUAUUACGGAGA	-3.59
AUUCAGCAAUAUUACGUCCG	-0.866
AUCCAGCAAUAUUACGACCA	-0.725
UACCAGCAAUAUUACGCAAU	-2.29
GUCAAGCAAUAUUACGACGA	-3.52
GUACAGCAAUAUUACGUCCA	-2.12
AGUCAGCAAUAUUACGUUCG	-1.9
UUGUAGCAAUAUUACGAAUU	-1.53
